test system: CASOB (Cassia obtusifolia); test: Preemergence herbicidal evaluation; assay type: in vivo, L.; conditions: Rate 0.1250 kg/ha; preemergence; rated 4-5 weeks after treatment
Each entry below carries its reported CASOB preemergence herbicidal rating.
property label: CASOB preemergence herbicidal rating

1) Cc1ccc(-c2nsc3ccc(N4C(=O)C5=C(CCCC5)C4=O)cc23)s1 ... 0.0
2) Cc1ccn(-c2nsc3ccc(-n4c(=O)cc(C(F)(F)F)n(C)c4=O)cc23)n1 ... 0.0
3) COC(=O)C(C)Oc1ccsc1-c1nsc2ccc(-n3c(=O)cc(C(F)(F)F)n(C)c3=O)cc12 (centres unmarked) ... 1.0
4) CCOC(=O)C1CS[C@H](c2nsc3ccc(-n4c(=O)cc(C(F)(F)F)n(C)c4=O)cc23)N1 (some centres unmarked) ... 7.5
5) CC(=O)N1CCSC1c1nsc2ccc(-n3c(=O)cc(C(F)(F)F)n(C)c3=O)cc12 (centres unmarked) ... 6.5
6) Cn1c(C(F)(F)F)cc(=O)n(-c2ccc3snc(C4OCCCS4)c3c2)c1=O (centres unmarked) ... 9.0
7) C#CCOC(=O)COc1ccsc1-c1nsc2ccc(-n3c(=O)cc(C(F)(F)F)n(C)c3=O)cc12 ... 0.0
8) Cn1c(C(F)(F)F)cc(=O)n(-c2ccc3snc(C4SCCN4C(=O)c4ccccc4)c3c2)c1=O (centres unmarked) ... 1.5
